// data source = patent EP4471048A1

Reported Emax by item:
- measured.target: human IL-23R (Homo sapiens, UniProt Q5VWK5)
- Sequence (Q5VWK5 22-629): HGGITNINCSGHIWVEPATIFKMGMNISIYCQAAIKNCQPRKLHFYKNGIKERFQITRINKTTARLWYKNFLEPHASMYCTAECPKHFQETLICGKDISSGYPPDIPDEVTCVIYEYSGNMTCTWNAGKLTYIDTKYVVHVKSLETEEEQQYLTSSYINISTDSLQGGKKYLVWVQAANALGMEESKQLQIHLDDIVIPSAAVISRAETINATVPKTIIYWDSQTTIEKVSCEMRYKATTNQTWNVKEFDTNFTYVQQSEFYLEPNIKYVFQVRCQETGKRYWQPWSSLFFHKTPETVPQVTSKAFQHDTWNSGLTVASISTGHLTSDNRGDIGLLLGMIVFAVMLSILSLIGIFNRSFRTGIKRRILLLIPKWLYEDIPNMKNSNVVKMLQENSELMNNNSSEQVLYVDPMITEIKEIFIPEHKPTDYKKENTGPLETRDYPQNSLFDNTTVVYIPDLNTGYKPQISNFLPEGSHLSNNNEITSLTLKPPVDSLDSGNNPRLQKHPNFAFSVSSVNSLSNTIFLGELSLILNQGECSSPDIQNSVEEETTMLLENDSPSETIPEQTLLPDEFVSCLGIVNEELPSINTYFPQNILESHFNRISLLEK
- procedure.summary: biochemical
- condition.details: read-out: % displacement (hIL-23R NIuc)
*1 amine or outer side, *2 acyl side, *3 side chain or, on linkers, in order; H or OH if unused. Where a SMILES comes first, the peptide text is derived from it. Bridges are numbered along the chain shown (N, C = ends). [ ]: non-standard residue; d: D form. X23 = O=C(CCCCCc1cccnc1)N[C@@H](CCN[*:2])C(=O)[*:1]; hAad = O=C([C@H](CCCCC(=O)[*:3])N[*:1])[*:2]; β3hW = N[C@H](CC(=O)O)Cc1c[nH]c2ccccc12; Phe(4-Me) = Cc1ccc(C[C@H](N)C(=O)O)cc1; 2Nal = N[C@@H](Cc1ccc2ccccc2c1)C(=O)O; AEF = NCCOc1ccc(C[C@H](N)C(=O)O)cc1; 3Pal = N[C@@H](Cc1cccnc1)C(=O)O; αMeL = CC(C)C[C@](C)(N)C(=O)O; β3hK = NCCCC[C@H](N)CC(=O)O; dDab = NCC[C@@H](N)C(=O)O; Dab = NCC[C@H](N)C(=O)O
property: Emax (%)

INSERT INTO measurements (compound, assay_value) VALUES
  ('CNC(=O)[C@H](Cc1cccnc1)NC(=O)[C@H](CCN)NC(=O)[C@@H]1CCC(=O)NCCCC[C@H]2CC(=O)N[C@@H](Cc3c[nH]c4ccccc34)C(=O)N[C@@H](CCC(N)=O)C(=O)N[C@@H](CCC(=O)N2)C(=O)N[C@@H](Cc2ccc(OCCN)cc2)C(=O)N[C@@H](Cc2ccc3ccccc3c2)C(=O)N[C@@](C)(CC(C)C)C(=O)N1', 103),
  ('CC(C)C[C@]1(C)NC(=O)[C@H](Cc2ccc3ccccc3c2)NC(=O)[C@H](Cc2ccc(OCCN)cc2)NC(=O)[C@@H]2CC(=O)N[C@H](CCNC(=O)CCCC[C@@H](C(=O)N[C@@H](CCN)C(=O)N[C@@H](Cc3cccnc3)C(N)=O)NC1=O)C(=O)N[C@@H]([C@@H](C)O)C(=O)N[C@@H](Cc1c[nH]c3ccccc13)C(=O)N[C@@H](CCC(N)=O)C(=O)N2 [Compound 15] ([dDab]TWQD[AEF][2Nal][αMeL][hAad][Dab][3Pal]-NH2; lactam 1-9, N-5)', 105),
  ('CNC(=O)[C@H](Cc1cccnc1)NC(=O)[C@H](CCN)NC(=O)[C@@H]1CCC(=O)NCCCC[C@H]2CC(=O)N[C@@H](Cc3c[nH]c4ccccc34)CC(=O)N[C@@H](CCC(N)=O)C(=O)N[C@@H](CCC(=O)N2)C(=O)N[C@@H](Cc2ccc(OCCN)cc2)C(=O)N[C@@H](Cc2ccc3ccccc3c2)C(=O)N[C@@](C)(CC(C)C)C(=O)N1 [Compound 100] ([β3hK][β3hW]QE[AEF][2Nal][αMeL]E[Dab][3Pal]-NHMe; lactam 1-8, N-4)', 97),
  ('Cc1ccc(C[C@@H]2NC(=O)[C@@H]3CCC(=O)N[C@@H](CCCCNC(=O)[C@@H](NC(=O)CCCCCc4cccnc4)CCNC(=O)[C@](C)(CC(C)C)NC(=O)[C@H](Cc4ccc5ccccc5c4)NC2=O)C(=O)N[C@@H]([C@@H](C)O)C(=O)N[C@@H](C(C)C)C(=O)N[C@@H](Cc2c[nH]c4ccccc24)C(=O)N[C@@H](CCC(N)=O)C(=O)N3)cc1 [Compound 25] (KTVWQE[Phe(4-Me)][2Nal][αMeL]; linker 1-C via X23; lactam N-6)', 91);
